Measured values drawn from paper PMC4120261 for this set.

# Test Target: WspR (Pseudomonas aeruginosa, UniProt Q9HXT9)
# Assay Explanation: EnzChek pyrophosphate assay
Endpoint Name: IC50

For orientation, consider the following solved cases.
Compound: CN(CCCn1c2c(c(=O)[nH]c1=O)CSCC2)S(=O)(=O)c1ccc(N)cc1
IC50: 102 µM
//
Compound: CC(=O)c1c(O)c(C)c(O)c(Cc2c(O)c3c(c(C(=O)/C=C/c4ccccc4)c2O)OC(C)(C)C=C3)c1O
IC50: 73.1 µM

Could I get IC50 for every one of these entries?
1. CCOc1ccc(/C=N/NC(=O)c2cc(O)c(O)c(O)c2)cc1CN1CC2CC(C1)c1cccc(=O)n1C2 (stereo not shown)
2. Cc1cc2c(C(C)C)c(O)c(O)c(C=O)c2c(O)c1-c1c(C)cc2c(C(C)C)c(O)c(O)c(C=O)c2c1O

Ans:
1. 44.9 µM
2. 70.9 µM
